# Tested on: TIE1
# Measurement parameters: concentration: 1 μM, replicates: in singlicate; n = 1

[
  {
    "Smiles representation": "O=C(Nc1ccccc1)Nc1cccc(Oc2ccc3nccn3n2)c1",
    "%Inh": "0%"
  },
  {
    "Smiles representation": "CN(C)CCN(C)C(=O)c1cc(-c2ccncc2)c(-c2ccc(Cl)c(O)c2)o1.Cl.Cl",
    "%Inh": "7%"
  },
  {
    "Smiles representation": "Cl.O=C(Nc1cccc(-c2nn3ncccc3c2-c2ccnc(Nc3cccnc3)n2)c1)c1c(F)cccc1F",
    "%Inh": "34%"
  },
  {
    "Smiles representation": "COc1ccc(Nc2nccc(NCCNC(=O)Nc3ccccc3F)n2)cc1",
    "%Inh": "0%"
  },
  {
    "Smiles representation": "Fc1cc(Cl)ccc1Nc1ccnc2cc(-c3ccc(CN4CCCCC4)o3)ccc12",
    "%Inh": "0%"
  },
  {
    "Smiles representation": "Cc1cccc(-c2nc(Nc3ccc4[nH]ncc4c3)c3ccccc3n2)n1",
    "%Inh": "17%"
  },
  {
    "Smiles representation": "O=C(O)COc1ncnc2cc(-c3ccc4[nH]ncc4c3)sc12",
    "%Inh": "24%"
  },
  {
    "Smiles representation": "O=C(Nc1n[nH]c2cc(-c3cccc(F)c3F)ccc12)C1CC1",
    "%Inh": "0%"
  },
  {
    "Smiles representation": "Cn1cncc1-c1ccc2ncnc(Nc3ccc(OCc4ccccc4)cc3)c2c1",
    "%Inh": "30%"
  }
]

* * *

# System: CHEK1
# Measurement parameters: concentration: 1 μM, replicates: in singlicate; n = 1
Item-by-item account of %Inh
Measured attribute: %Inh (%)

[
  {
    "Compound": "Nc1ncnc2[nH]c(-c3ccccc3)nc12",
    "Readout number": 0
  },
  {
    "Compound": "Cl.O=C(Nc1cccc(-c2nn3ncccc3c2-c2ccnc(Nc3cccnc3)n2)c1)c1c(F)cccc1F",
    "Readout number": 12
  },
  {
    "Compound": "Cc1ccc(-c2cc(-c3c[nH]nc3-c3ccccn3)ccn2)cc1",
    "Readout number": 12
  },
  {
    "Compound": "CN1C(=O)C(Nc2ccc(Cl)c(C(=O)O)c2)=C(c2ccc(Cl)cc2)C1=O",
    "Readout number": 0
  },
  {
    "Compound": "Cc1cc(NCC(c2ccccc2)c2ccccc2)nc(NCc2ccc(C(F)(F)F)cc2)n1",
    "Readout number": 0
  },
  {
    "Compound": "CC(C)(C)c1ccc(C(=O)Nc2cn3cc(Cl)ccc3n2)cc1",
    "Readout number": 0
  },
  {
    "Compound": "COc1ccccc1CNC(=O)c1cc(C(=O)c2ccccc2C)c[nH]1",
    "Readout number": 0
  },
  {
    "Compound": "Cc1ccc(NC(=O)Nc2cc(C(C)(C)C)nn2-c2ccccc2)cc1",
    "Readout number": 24
  },
  {
    "Compound": "Cn1ccc2ncnc(Oc3ccc(NC(=O)Nc4ccccc4)cc3)c21",
    "Readout number": 1
  },
  {
    "Compound": "O=C(Nc1n[nH]c2cc(-c3cccc(F)c3F)ccc12)C1CC1",
    "Readout number": 3
  },
  {
    "Compound": "COc1cc(Nc2nccc(N3CCC(NC(=O)Nc4cc(C)ccc4C)C3)n2)cc(OC)c1OC (stereo not drawn)",
    "Readout number": 25
  },
  {
    "Compound": "COC(=O)c1c(-c2ccccc2)c2cc(C(=O)O)ccc2c(=O)n1Cc1ccccc1",
    "Readout number": 0
  },
  {
    "Compound": "COc1ccc(C2=C(Nc3cccc(C(=O)O)c3)C(=O)NC2=O)cc1",
    "Readout number": 0
  },
  {
    "Compound": "COC(=O)c1c(-c2ccccc2)c2cc(OC)ccc2c(=O)n1Cc1ccccc1",
    "Readout number": 0
  },
  {
    "Compound": "CC1=C(C(=O)Nc2cc3cn[nH]c3cc2F)C(c2ccc(C(F)(F)F)cc2)CC(=O)N1 (stereo not drawn)",
    "Readout number": 7
  },
  {
    "Compound": "Cc1nnc(-c2ccc3occ(-c4ccc(S(C)=O)cc4)c3c2)[nH]1 (stereo not drawn)",
    "Readout number": 0
  },
  {
    "Compound": "COc1cc2ncnc(Nc3ccc4nc(-c5ccccc5)[nH]c4c3)c2cc1OC.Cl",
    "Readout number": 0
  },
  {
    "Compound": "COc1cc2ncn(-c3cc(OCC4CCCO4)c(C(N)=O)s3)c2cc1OC (stereo not drawn)",
    "Readout number": 0
  }
]

* * *

Item-by-item account of %Inh
# System: DAPK3
# Measurement parameters: concentration: 1 μM, replicates: in singlicate; n = 1

[
  {
    "Compound": "NC(=O)c1nnc2ccccc2c1N",
    "Measured target": "DAPK3",
    "%Inh [%]": 6
  },
  {
    "Compound": "Cc1c(Cn2ccn3c(=O)cc(N4CCOCC4)nc23)cccc1C(F)(F)F",
    "Measured target": "DAPK3",
    "%Inh [%]": 12
  },
  {
    "Compound": "O=C(O)COc1ncnc2cc(-c3ccc4[nH]ncc4c3)sc12",
    "Measured target": "DAPK3",
    "%Inh [%]": 5
  },
  {
    "Compound": "Cl.Oc1ccc(-c2nc(-c3ccccc3)[nH]c2-c2ccncc2)cc1",
    "Measured target": "DAPK3",
    "%Inh [%]": 31
  },
  {
    "Compound": "Cl.NC(=O)c1cccc(Nc2nccc(Nc3ccc(Oc4cccc(Cl)c4)c(Cl)c3)n2)c1",
    "Measured target": "DAPK3",
    "%Inh [%]": 22
  },
  {
    "Compound": "Cc1csc(-c2nc(Nc3ccncc3)c3ccccc3n2)n1",
    "Measured target": "DAPK3",
    "%Inh [%]": 48
  },
  {
    "Compound": "C[C@@H]1CCCCN1c1cc(-c2ccc3c(N)n[nH]c3c2)nc(N)n1",
    "Measured target": "DAPK3",
    "%Inh [%]": 19
  },
  {
    "Compound": "Fc1cc(Cl)ccc1Nc1ccnc2cc(I)ccc12",
    "Measured target": "DAPK3",
    "%Inh [%]": 9
  },
  {
    "Compound": "Cl.c1ccc(-c2n[nH]cc2-c2ccnc(-c3ccc(CN4CCOCC4)cc3)c2)nc1",
    "Measured target": "DAPK3",
    "%Inh [%]": 4
  },
  {
    "Compound": "CC1=C(C(=O)Nc2cc3cn[nH]c3cc2F)C(c2ccc(C(F)(F)F)cc2)CC(=O)N1 (stereo not shown)",
    "Measured target": "DAPK3",
    "%Inh [%]": 24
  }
]

* * *

# System: MEK6;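 also: kd values determined as follow-up on hits from a single-replicate KINOMEscan panel screen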
# Construct: gene MAP2K6
pKd: −log10 of the molar value.

[
  {
    "Molecule": "CCCc1ccc(S(=O)(=O)NC2CCN(c3ccnc(Nc4ccc(F)cc4)n3)C2)cc1 (centres unmarked) [GSK1379715]",
    "Measured target": "MEK6",
    "pKd": "< 5.00"
  },
  {
    "Molecule": "CCn1c(-c2ccccn2)nc2cnccc21 [SB-736398]",
    "Measured target": "MEK6",
    "pKd": "< 5.00"
  }
]

* * *

# Test system: CDK8
# Measurement parameters: concentration: 1 μM, replicates: in singlicate; n = 1
Label scheme for %Inh: lower than 7% is N, 7% and above is Y.

[
  {
    "Compound": "Cn1ccc2ncnc(Oc3cccc(C(=O)Nc4ccccc4)c3)c21",
    "Class label": "Y"
  },
  {
    "Compound": "Cc1cc(-c2ccc3c(c2)CC[C@@H](N[C@@H](C)c2ccccc2)C3)cnc1N.Cl",
    "Class label": "Y"
  },
  {
    "Compound": "COc1cc2ncnc(Nc3ccc4nc(-c5ccccc5)[nH]c4c3)c2cc1OC.Cl",
    "Class label": "N"
  },
  {
    "Compound": "Cl.O=C(Nc1cccc(-c2nn3ncccc3c2-c2ccnc(Nc3cccnc3)n2)c1)c1c(F)cccc1F",
    "Class label": "N"
  },
  {
    "Compound": "Cc1cc(N2Cc3ccccc3C2)nc(Nc2ccc(S(=O)(=O)N3CCOCC3)cc2)n1.Cl",
    "Class label": "Y"
  },
  {
    "Compound": "COc1ccccc1CNC(=O)c1cc(C(=O)c2ccccc2C)c[nH]1",
    "Class label": "N"
  },
  {
    "Compound": "O=C(Nc1ccc2c(c1)OCO2)NC1CCN(c2ccnc(Nc3ccc(F)cc3)n2)C1 (stereo not drawn)",
    "Class label": "Y"
  },
  {
    "Compound": "O=C(Nc1n[nH]c2cc(-c3cccc(F)c3F)ccc12)C1CC1",
    "Class label": "Y"
  }
]
